system.name: Cellular tumor antigen p53 (Homo sapiens) (UniProt P04637)
Sequence (P04637 whole entry, looked up): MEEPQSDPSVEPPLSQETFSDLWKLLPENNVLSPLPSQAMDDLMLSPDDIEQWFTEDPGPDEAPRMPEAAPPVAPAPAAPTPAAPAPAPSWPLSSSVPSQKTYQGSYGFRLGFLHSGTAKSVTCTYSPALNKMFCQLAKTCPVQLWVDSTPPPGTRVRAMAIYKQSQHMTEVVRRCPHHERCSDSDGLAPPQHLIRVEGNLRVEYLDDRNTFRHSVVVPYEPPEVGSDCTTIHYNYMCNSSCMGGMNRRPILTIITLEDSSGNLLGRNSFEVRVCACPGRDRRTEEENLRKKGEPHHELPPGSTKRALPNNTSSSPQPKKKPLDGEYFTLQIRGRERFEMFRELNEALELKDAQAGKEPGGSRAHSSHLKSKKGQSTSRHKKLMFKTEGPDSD
assay.comment: Primary qHTS for small molecule compounds that upregulate eGFP-tagged delta133p53alpha (in N-terminal) cells. (AID 2060322);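 also: cells pre-induced with doxycycline then dosed without doxycycline; series mostly up to about 56 µM; 0% = DMSO vehicle and 100% = reference activator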
measurement.setup: NCI-H358 eGFP-delta133p53alpha fluorescence, 24 h; stronger effect = higher value
Records with an inconclusive call do not appear.
property.measured: activation (%)
Numbers only here, please. The scale is %.

Sample records with activation:
{"columns": ["compound", "system.name", "unit.spec", "activation"],
 "data": [
  ["COc1c(/C=C/C(C)(C)O)ccc2c1C(=O)OCc1cc(C)cc(O)c1O2", "Cellular tumor antigen p53 (Homo sapiens) (UniProt P04637)", "%", -12.5],
  ["CC1(O)CCCC2(C)C1CCC13CC(CO)C(CCC12)C3 (stereo not given)", "Cellular tumor antigen p53 (Homo sapiens) (UniProt P04637)", "%", 0],
  ["COc1ccc(CC(=O)NCc2ccccc2-c2ccccc2C(=O)NCCc2cccnc2)cc1", "Cellular tumor antigen p53 (Homo sapiens) (UniProt P04637)", "%", 0.955],
  ["CCOC(=O)[C@H](CCc1ccccc1)N[C@@H](C)C(=O)N1[C@H](C(=O)O)C[C@H]2CCCC[C@@H]21", "Cellular tumor antigen p53 (Homo sapiens) (UniProt P04637)", "%", -16.3]
]}

Below: the item to evaluate.
activation recorded for this compound, COc1cccc(OC)c1-c1cc(C(=O)N[C@@H](CC(C)C)C(=O)O)nn1-c1ccnc2cc(Cl)ccc12 , is 15.8

====

system.name: Cellular tumor antigen p53 (Homo sapiens)
assay.comment: Primary qHTS for small molecule compounds that upregulate eGFP-tagged delta133p53alpha (in N-terminal) cells. (AID 2060322);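 also: cells pre-induced with doxycycline then dosed without doxycycline; series mostly up to about 56 µM; 0% = DMSO vehicle and 100% = reference activator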
measurement.setup: NCI-H358 eGFP-delta133p53alpha fluorescence, 24 h; stronger effect = higher value
Records with an inconclusive call do not appear.
property.measured: activation (%)
State just the number; it will be interpreted in %.

{"columns": ["compound", "observed"],
 "data": [
  ["C/C=C(/C)C(=O)O[C@H]1C[C@]2(C)O[C@@H]2[C@@H](OC(C)=O)[C@@]2(C)CC[C@@](O)(C(C)C)[C@H]12", -19.1],
  ["CN=C(N)NCCCCC/C=C(/C)CC(C)C1OC(=O)C(C)C(O)/C=C/C(C)C(O)CC(O)C(C)C(O)CCC(C)C(O)CC2(O)OC(CC(OC(=O)CC(=O)O)CC(O)CC(O)C(C)C(O)/C(C)=C/CCC1C)CC(O)C2O (stereo unspecified)", -19.1],
  ["CC(C)=CCC[C@](C)(O[C@@H]1O[C@H](CO)[C@@H](O)[C@H](O)[C@H]1O)[C@H]1CC[C@]2(C)[C@@H]1[C@H](O)CC1[C@@]3(C)CC[C@H](O)C(C)(C)C3[C@@H](O[C@@H]3O[C@H](CO)[C@@H](O)[C@H](O)[C@H]3O[C@@H]3OC[C@@H](O)[C@H](O)[C@H]3O)C[C@]12C (stereo partly specified)", -15.3],
  ["CN[C@H](CC(C)C)C(=O)N[C@H]1C(=O)N[C@@H](CC(N)=O)C(=O)N[C@H]2C(=O)N[C@H]3C(=O)N[C@H](C(=O)N[C@H](C(=O)O)c4cc(O)cc(O)c4-c4cc3ccc4O)[C@H](O[C@H]3C[C@](C)(N)[C@@H](O)[C@H](C)O3)c3ccc(c(Cl)c3)Oc3cc2cc(c3O[C@@H]2O[C@H](CO)[C@@H](O)[C@H](O)[C@H]2O[C@H]2C[C@](C)(NCc3ccc(-c4ccc(Cl)cc4)cc3)[C@@H](O)[C@H](C)O2)Oc2ccc(cc2Cl)[C@H]1O", 27],
  ["CCC(=O)N1CCc2cc(OC)c(O)cc2C1", -7.64]
]}

Field: next compound
The recorded activation for entry CC(C)C(C#N)O[C@@H]1O[C@H](CO[C@@H]2OC[C@](O)(CO)[C@H]2O)[C@@H](O)[C@H](O)[C@H]1O (stereo partly specified) equals 6.87
